# TESTED TARGET: JAK 1 (Homo sapiens, UniProt P23458)
# Sequence (P23458 whole entry): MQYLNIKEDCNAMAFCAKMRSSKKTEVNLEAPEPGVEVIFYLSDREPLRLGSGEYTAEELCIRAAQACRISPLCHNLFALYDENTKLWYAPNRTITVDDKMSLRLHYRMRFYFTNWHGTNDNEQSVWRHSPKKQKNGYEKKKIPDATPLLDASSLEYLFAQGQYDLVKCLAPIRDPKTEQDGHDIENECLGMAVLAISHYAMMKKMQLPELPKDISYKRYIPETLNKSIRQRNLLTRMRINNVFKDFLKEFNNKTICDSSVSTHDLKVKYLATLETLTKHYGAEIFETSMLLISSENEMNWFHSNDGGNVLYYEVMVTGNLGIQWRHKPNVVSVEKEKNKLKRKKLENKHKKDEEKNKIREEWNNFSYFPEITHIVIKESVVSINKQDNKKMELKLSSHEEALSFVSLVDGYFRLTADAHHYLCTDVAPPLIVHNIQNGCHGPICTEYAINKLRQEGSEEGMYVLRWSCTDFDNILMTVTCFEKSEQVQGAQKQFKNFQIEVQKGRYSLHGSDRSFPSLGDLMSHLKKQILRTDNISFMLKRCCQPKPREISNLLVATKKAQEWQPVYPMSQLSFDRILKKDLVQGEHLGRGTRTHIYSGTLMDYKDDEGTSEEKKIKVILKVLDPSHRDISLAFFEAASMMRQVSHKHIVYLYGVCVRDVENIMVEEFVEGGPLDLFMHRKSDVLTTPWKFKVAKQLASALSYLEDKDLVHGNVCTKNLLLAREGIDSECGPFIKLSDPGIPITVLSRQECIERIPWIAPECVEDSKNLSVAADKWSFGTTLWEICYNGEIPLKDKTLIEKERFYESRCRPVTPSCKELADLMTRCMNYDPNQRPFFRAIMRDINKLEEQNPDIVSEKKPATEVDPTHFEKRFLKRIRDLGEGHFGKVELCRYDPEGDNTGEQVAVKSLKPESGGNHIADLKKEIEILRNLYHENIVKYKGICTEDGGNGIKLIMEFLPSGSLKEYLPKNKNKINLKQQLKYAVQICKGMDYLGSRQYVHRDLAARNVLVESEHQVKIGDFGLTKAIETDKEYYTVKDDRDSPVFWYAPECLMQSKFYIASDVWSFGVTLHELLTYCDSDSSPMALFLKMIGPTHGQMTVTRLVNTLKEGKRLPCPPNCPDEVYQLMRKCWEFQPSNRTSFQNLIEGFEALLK
# ASSAY NOTES: Biochemical potency on JAK1, TR-FRET LANCE Ultra kinase assay (examples 1-99)
# CONDITION PARAMETERS: ATP at Km (20 μM), read-out: JAK1 inhibitory activity (pIC50 class) (converted)
PROPERTY: IC50

Bench note: what IC50 did COc1ccc(S(C)(=O)=O)cc1-n1nc(NCCN2CCOCC2)c2cnc(-c3cnn4cccnc34)cc21 show?
5.01 to 50.1 nM

Requested field: IC50. Item: CNc1nc(-c2cnn3cccnc23)cc2c1cnn2-c1cc(Cl)ccc1OC
> 50.1 nM

Form field: reported IC50 of COc1ccc(F)cc1-n1nc(C)c2cnc(-c3cnn4cccnc34)cc21
5.01 to 50.1 nM

Would you mind telling me what IC50 value was observed for CSc1ccc(Cl)cc1-n1nc(C)c2cnc(-c3cnn4cccnc34)cc21 ?
5.01 to 50.1 nM

###

IC50 values, listed per item
# TESTED TARGET: JAK 1 (Homo sapiens, UniProt P23458)
# ASSAY NOTES: Biochemical potency on JAK1, TR-FRET LANCE Ultra kinase assay (examples 1-99)
# CONDITION PARAMETERS: ATP at Km (20 μM), read-out: JAK1 inhibitory activity (pIC50 class) (converted)

Solved cases (3 shown):
>>> df
                                   compound  property  measured_result
0  COc1ccc(Cl)cc1-n1ncc2c(N(C)C)nc(-c3cnn4cccnc34)cc21 [Example 51]      IC50  5.01 to 50.1 nM
1  COc1ccc(Cl)cc1-n1nc(C(=O)N[C@H]2C[C@H](N(C)C)C2)c2cnc(-c3cnn4cccnc34)cc21 [Example 80]      IC50  5.01 to 50.1 nM
2  Cc1nn(-c2cc(Cl)ccc2OC2CC2)c2cc(-c3cnn4cccnc34)ncc12 [Example 7]      IC50  5.01 to 50.1 nM

Suppose we examine the compound CNC(=O)CNc1nc(-c2cnn3cccnc23)cc2c1cnn2-c1cc(Cl)ccc1OC [Example 54] ; what IC50 value has been reported?
5.01 to 50.1 nM

Which measured IC50 value corresponds to Cc1nn(-c2cc(S(C)(=O)=O)ccc2OC(F)F)c2cc(Nc3ncc[nH]c3=O)ncc12 [Example 94] ?
≤ 5.01 nM

Would you kindly share the measured IC50 for COc1ccc(Cl)cc1-n1nc(C(=O)N[C@H]2C[C@H](N)C2)c2cnc(-c3cnn4cccnc34)cc21 [Example 77] ?
5.01 to 50.1 nM

Fill in the blank: the reported IC50 of Cc1nn(-c2cc(SCC(N)=O)ccc2OC(F)F)c2cc(-c3cnn4cccnc34)ncc12 [Example 68] is ____.
5.01 to 50.1 nM

Given the compound Cc1nn(-c2cc(C(=O)Nc3nccs3)ccc2OC(F)F)c2cc(-c3cnn4cccnc34)ncc12 [Example 66] , what is its reported IC50?
5.01 to 50.1 nM

Find the recorded IC50 belonging to COc1ccc(NS(C)(=O)=O)cc1-n1nc(NCCN(C)C)c2cnc(-c3cnn4cccnc34)cc21 [Example 86] and report it.
> 50.1 nM

What does the data say about its IC50? Entry: COc1ccc(Cl)cc1-n1ncc2c(O)nc(-c3cnn4cccnc34)cc21 [Example 57]
5.01 to 50.1 nM

Recorded IC50 of CNC(=O)CN(C)[C@H]1C[C@H](NC(=O)c2nn(-c3cc(Cl)ccc3OC)c3cc(-c4cnn5cccnc45)ncc23)C1 [Example 78] , please.
5.01 to 50.1 nM

Entry Cc1nn(-c2cc(Cl)ccc2OC(F)F)c2cc(-c3cnn4cccnc34)ncc12 [Example 11] has what IC50?
≤ 5.01 nM

Reported IC50, compound COc1ccc(C(F)F)cc1-n1nc(C)c2cnc(Nc3ncc[nH]c3=O)cc21 [Example 91] : ____
5.01 to 50.1 nM

What IC50 value was documented for this compound, COc1ccc(Cl)cc1-n1nc(NC(C)=O)c2cnc(-c3cnn4cccnc34)cc21 [Example 40] ?
≤ 5.01 nM

###

# TESTED TARGET: TYK2 (Homo sapiens)
# Sequence (P29597 whole entry): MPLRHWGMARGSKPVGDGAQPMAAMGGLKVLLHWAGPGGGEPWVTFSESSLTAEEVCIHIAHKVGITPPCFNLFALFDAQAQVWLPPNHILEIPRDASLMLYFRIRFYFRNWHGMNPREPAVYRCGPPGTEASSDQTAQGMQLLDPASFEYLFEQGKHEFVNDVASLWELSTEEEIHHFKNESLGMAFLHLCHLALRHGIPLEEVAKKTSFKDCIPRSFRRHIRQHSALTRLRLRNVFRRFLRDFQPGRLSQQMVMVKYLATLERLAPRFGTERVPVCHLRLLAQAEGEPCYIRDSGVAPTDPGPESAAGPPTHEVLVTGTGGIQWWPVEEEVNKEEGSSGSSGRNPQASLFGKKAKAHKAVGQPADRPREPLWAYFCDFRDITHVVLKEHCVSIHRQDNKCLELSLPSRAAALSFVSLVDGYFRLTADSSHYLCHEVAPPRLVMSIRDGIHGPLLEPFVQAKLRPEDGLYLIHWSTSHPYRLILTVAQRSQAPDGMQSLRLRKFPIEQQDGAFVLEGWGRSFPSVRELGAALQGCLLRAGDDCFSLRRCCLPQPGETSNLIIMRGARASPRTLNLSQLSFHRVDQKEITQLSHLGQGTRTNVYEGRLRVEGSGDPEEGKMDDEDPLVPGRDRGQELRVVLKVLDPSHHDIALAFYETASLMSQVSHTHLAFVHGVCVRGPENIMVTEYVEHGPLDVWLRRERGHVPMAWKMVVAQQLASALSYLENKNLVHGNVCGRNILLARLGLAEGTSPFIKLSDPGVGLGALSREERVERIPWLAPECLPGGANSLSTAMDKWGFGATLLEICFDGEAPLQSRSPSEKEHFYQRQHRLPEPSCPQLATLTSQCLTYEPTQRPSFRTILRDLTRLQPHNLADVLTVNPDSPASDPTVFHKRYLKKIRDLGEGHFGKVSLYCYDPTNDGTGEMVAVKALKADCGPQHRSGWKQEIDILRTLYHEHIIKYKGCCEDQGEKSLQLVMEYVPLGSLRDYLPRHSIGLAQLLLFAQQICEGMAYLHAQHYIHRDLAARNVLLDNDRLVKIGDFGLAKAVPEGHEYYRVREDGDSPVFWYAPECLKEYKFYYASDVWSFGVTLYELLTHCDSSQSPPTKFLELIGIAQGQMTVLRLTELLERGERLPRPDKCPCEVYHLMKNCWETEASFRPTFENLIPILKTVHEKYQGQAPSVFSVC
# ASSAY NOTES: Biochemical potency on Tyk2, TR-FRET LANCE Ultra kinase assay (examples 1-99)
# CONDITION PARAMETERS: ATP at Km (12 μM), read-out: Tyk2 inhibitory activity (pIC50 class) (converted)
The reader will find reported IC50 values listed item by item below.

>>> df
                                smiles_text  property  measured_result
0  Cc1nn(-c2cc(SCC(=O)NCCO)ccc2OC(F)F)c2cc(-c3cnn4cccnc34)ncc12      IC50        > 50.1 nM
1  Cc1nn(-c2cc(Br)ccc2OC(F)F)c2cc(-c3cnn4cccnc34)ncc12      IC50  5.01 to 50.1 nM
2  CSc1ccc(Cl)cc1-n1nc(C)c2cnc(-c3cnn4cccnc34)cc21      IC50  5.01 to 50.1 nM

Identify the measured IC50 of CNS(=O)(=O)c1ccc(OC)c(-n2nc(C)c3cnc(-c4cnn5cccnc45)cc32)c1 for TYK2 (Homo sapiens).
5.01 to 50.1 nM

Request: IC50, test system TYK2 (Homo sapiens), entry CC(=O)N1CCC(Sc2ccc(OC(F)F)c(-n3nc(C)c4cnc(-c5cnn6cccnc56)cc43)c2)CC1
> 50.1 nM

IC50 of COCCS(=O)(=O)c1ccc(OC(F)F)c(-n2nc(C)c3cnc(Nc4ncc[nH]c4=O)cc32)c1 on TYK2 (Homo sapiens)?
5.01 to 50.1 nM

For the record NCc1nn(-c2cc(Cl)ccc2OC(F)F)c2cc(-c3cnn4cccnc34)ncc12 , what value of IC50 is listed for TYK2 (Homo sapiens)?
5.01 to 50.1 nM

For TYK2 (Homo sapiens), provide IC50 of CN(C)Cc1nn(-c2cc(Cl)ccc2OC(F)F)c2cc(-c3cnn4cccnc34)ncc12 please.
> 50.1 nM

From: patent US20240279240A1
